The values you see were collected from patent US20140056903A1.

Biological target: T1, monkey GFRα3 expressed with a C-terminal myc-myc-hexahistidine tag (monkey (Mf), UniProt O60609 32-374 (human entry), limits assumed)
T1 construct: also called MfGFRα3-mmh; MfGFRα3-mmH
T1 chain: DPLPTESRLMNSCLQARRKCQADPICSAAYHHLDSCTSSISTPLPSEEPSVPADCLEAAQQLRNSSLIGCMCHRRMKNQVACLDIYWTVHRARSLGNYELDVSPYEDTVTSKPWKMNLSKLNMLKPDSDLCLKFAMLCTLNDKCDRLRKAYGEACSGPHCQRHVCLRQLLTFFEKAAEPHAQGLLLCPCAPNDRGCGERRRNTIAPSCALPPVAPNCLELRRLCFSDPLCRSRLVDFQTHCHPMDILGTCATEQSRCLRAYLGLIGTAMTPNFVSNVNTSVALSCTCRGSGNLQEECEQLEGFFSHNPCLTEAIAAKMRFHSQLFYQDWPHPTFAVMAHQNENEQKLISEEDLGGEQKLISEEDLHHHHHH
Assay: SPR, Ab captured, 25C
I'd appreciate it if you could supply pKd values for the items below.
API: returns pKd as number; meaning -log10 of concentration in mol/L.

For reference, reported pKd for H4H2295S (antibody, human IgG4, V domains shown, human IgG4 Fc (H4H)) VH: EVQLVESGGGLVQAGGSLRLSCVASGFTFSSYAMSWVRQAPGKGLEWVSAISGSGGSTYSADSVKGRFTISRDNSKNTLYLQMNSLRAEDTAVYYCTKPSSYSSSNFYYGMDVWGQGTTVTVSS VL: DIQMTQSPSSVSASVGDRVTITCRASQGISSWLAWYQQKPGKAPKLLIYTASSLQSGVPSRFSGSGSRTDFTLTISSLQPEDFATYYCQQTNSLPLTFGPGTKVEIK stands at 8.27

For reference, reported pKd for H4H2346S (antibody, human IgG4, V domains shown, human IgG4 Fc (H4H)) VH: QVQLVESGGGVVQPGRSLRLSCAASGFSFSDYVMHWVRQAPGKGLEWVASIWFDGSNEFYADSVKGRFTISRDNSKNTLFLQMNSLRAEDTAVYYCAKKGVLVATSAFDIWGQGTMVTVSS VL: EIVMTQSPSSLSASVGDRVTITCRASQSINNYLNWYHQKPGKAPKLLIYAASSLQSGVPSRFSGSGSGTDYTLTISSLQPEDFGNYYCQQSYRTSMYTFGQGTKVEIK stands at 9.25
